Assembled from different publications: IC50 for BRD4 (Homo sapiens (Human), UniProt O60885).
Please provide the amount together with its unit, number first.

# example entries with known answers
{"molecule": "Cc1cc(N2C(=O)c3nn(C4COC4)c(C)c3C2c2ccc(Cl)cc2)cn(C)c1=O (stereo not drawn)", "experimental_value": "160 nM"}
{"molecule": "COc1ncc(-c2nc3c([nH]2)C(c2ccc(Cl)cc2)N(c2cc(OC)c4nnc(C)n4c2)C3=O)c(OC)n1 (stereo not drawn)", "experimental_value": "120 nM"}
{"molecule": "Cc1cc2c(n1C)[C@@H](c1ccc(Cl)cc1)N(c1cc(Cl)c(=O)n(C)c1)C2=O", "experimental_value": "85.3 nM"}
{"molecule": "Cc1cc(N2C(=O)c3nn(C(=O)N(C)C)c(C)c3[C@H]2c2ccc(Cl)cc2)cn2c(C)nnc12", "experimental_value": "110 nM"}
{"molecule": "Cn1cc(N2C(=O)c3cc(-c4cccn(C)c4=O)n(C4CC4)c3C2c2ccc(Cl)cc2)cc(Cl)c1=O (stereo not drawn)", "experimental_value": "85 nM"}

What is its IC50 for BRD4 (Homo sapiens (Human), UniProt O60885)? Entry: Cc1cc(N2C(=O)c3c(C4CC4)nn(C)c3C2c2ccc(Cl)cc2)cn2c(CF)nnc12 (racemic)
15 nM

# iterate: Cc1cc(N2C(=O)c3cc(C4CCOCC4)n(C)c3C2c2ccc(Cl)cc2)cn2c(C)nnc12 (stereo not drawn)
56 nM
